experimental-system: PLA2 of type I originating from pig pancreas (Sus scrofa, UniProt P00592)
Construct: originates from pig pancreas (enzyme of type I); from tissue; host or cells: pig pancreas
Sequence (P00592 23-146): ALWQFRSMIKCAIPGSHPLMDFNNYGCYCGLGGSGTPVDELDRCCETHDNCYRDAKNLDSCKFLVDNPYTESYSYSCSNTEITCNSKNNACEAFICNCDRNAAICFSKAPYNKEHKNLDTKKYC
measurement-description: Acellular in vitro inhibition of PLA2 of type I, determination of free fatty acids
Assay type: biochemical
protocol-conditions: Table VII; 1 mM; read-out: percentage inhibition with respect to control
measurement-type: inhibition at 1000 µM
Include the unit right after the number.

Working through the 4 molecules below one at a time, give inhibition at 1000 µM for each.
1. CC(C)Cc1ccc(C(C)C(=O)O)cc1 (stereo not shown)
2. O=C(O)Cc1ccccc1Nc1c(Cl)cccc1Cl
3. CC(=O)Oc1ccccc1C(=O)O
4. COc1ccc2c(c1)c(CC(=O)O)c(C)n2C(=O)c1ccc(Cl)cc1

Result:
6.9%
8%
3.5%
0%

Data origin, for the record: patent US20150110907A1
